Data origin: ChEMBL document CHEMBL4270630

- assay.details: Selectivity index, ratio of MCC for MDCK cells to EC50 for Influenza A virus A/PR/8/34(H1N1) infected in MDCK cells assessed as reduction in virus-induced cytopathic effect by microscopic method
- Type: toxicity, cell-based
- experimental.parameters: dog, read-out: Selectivity Index
measurement.kind: selectivity ratio
One number for each entry.

If you can, please state the reported selectivity ratio value of CCCCCCCCSC1=C(SCCCCCCCC)C(=O)N(Cc2cn(C3C(=O)N[C@@H]4Cc5ccc(c(Cl)c5)Oc5cc6cc(c5O)Oc5ccc(cc5Cl)[C@@H](O[C@@H]5O[C@H](CO)[C@@H](O)[C@H](O)[C@H]5NC(C)=O)[C@H]5NC(=O)[C@H](NC(O)[C@@H]6NC(=O)[C@@H](NC4=O)c4cc(O)cc(c4)Oc4cc3ccc4O)c3ccc(O)c(c3)-c3c(O)cc(O)cc3[C@H](C(=O)O)NC5=O)nn2)C1=O (some centres not stated) .
10

Shift focus to the following entry.
If you can, please state the reported selectivity ratio value of CCCCSC1=C(SCCCC)C(=O)N(CCOCCOCCOCCOCc2cn(C3C(=O)N[C@@H]4Cc5ccc(c(Cl)c5)Oc5cc6cc(c5O)Oc5ccc(cc5Cl)[C@@H](O[C@@H]5O[C@H](CO)[C@@H](O)[C@H](O)[C@H]5NC(C)=O)[C@H]5NC(=O)[C@H](NC(O)[C@@H]6NC(=O)[C@@H](NC4=O)c4cc(O)cc(c4)Oc4cc3ccc4O)c3ccc(O)c(c3)-c3c(O)cc(O)cc3[C@H](C(=O)O)NC5=O)nn2)C1=O (some centres not stated) .
16
